Where do the numbers come from? From the supplement of paper PMC3545927.

Biological target: furin, P09958;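 note: purified furin at 1:10 enzyme:substrate in 50 mM HEPES pH 7.5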
Sequence (P09958 whole entry): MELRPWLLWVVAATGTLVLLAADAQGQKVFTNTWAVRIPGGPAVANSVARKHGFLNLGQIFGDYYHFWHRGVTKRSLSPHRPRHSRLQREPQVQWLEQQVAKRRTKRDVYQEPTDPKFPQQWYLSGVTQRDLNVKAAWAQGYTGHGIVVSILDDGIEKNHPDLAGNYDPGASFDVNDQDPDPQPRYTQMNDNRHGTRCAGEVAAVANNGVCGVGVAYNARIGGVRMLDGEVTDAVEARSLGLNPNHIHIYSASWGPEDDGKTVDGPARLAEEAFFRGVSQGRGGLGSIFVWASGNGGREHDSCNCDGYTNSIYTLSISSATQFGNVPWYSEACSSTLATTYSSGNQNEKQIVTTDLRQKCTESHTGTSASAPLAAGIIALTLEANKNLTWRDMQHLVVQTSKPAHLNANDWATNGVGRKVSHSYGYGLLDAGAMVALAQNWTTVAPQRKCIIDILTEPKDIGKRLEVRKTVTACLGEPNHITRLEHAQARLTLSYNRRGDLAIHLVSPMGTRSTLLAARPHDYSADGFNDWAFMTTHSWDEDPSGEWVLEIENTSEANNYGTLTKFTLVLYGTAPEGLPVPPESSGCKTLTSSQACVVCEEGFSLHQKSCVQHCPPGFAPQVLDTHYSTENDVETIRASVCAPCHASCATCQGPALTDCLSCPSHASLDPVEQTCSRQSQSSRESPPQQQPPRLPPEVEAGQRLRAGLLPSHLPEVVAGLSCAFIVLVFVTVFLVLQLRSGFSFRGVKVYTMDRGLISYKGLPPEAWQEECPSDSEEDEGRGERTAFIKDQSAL
Experiment: furin cleavage Z-score vs untreated control; higher = more cleavage, active = 3.5 or more, inactive = 1 or less, 8 variable residues between constant flanks
Details: 15 min
The other results are listed elsewhere or left out. The true hit rate is not given.
Could you label it Satisfied if measured furin cleavage Z-score is 1 or higher, and Not satisfied otherwise?

{"sequence": "CAAAASKVKAAGNASASA [HC1407]", "class-assignment": "Not satisfied"}
{"sequence": "CAEVPCHRSSAGNASASA [HC2397]", "class-assignment": "Satisfied"}
{"sequence": "CARKYRFHGGAGNASASA [FS-1734]", "class-assignment": "Not satisfied"}
{"sequence": "CAEPHRRRRKAGNASASA [FS-415]", "class-assignment": "Satisfied"}
{"sequence": "CALRRRRKRYAGNASASA [FS-944]", "class-assignment": "Satisfied"}
{"sequence": "CAVSGRRNRSAGNASASA [FS-1435]", "class-assignment": "Satisfied"}
{"sequence": "CAESGRENRSAGNASASA [FS-764]", "class-assignment": "Not satisfied"}
{"sequence": "CACRRRRRRKAGNASASA [FS-583]", "class-assignment": "Satisfied"}
{"sequence": "CARRRRNKRYAGNASASA [FS-1403]", "class-assignment": "Satisfied"}
{"sequence": "CAVVVCSMSYAGNASASA [HC2030]", "class-assignment": "Not satisfied"}
{"sequence": "CARDWAHNGLAGNASASA [HC639]", "class-assignment": "Not satisfied"}
{"sequence": "CAHANRTGRAAGNASASA [FS-130]", "class-assignment": "Satisfied"}
{"sequence": "CARRRRKQRKAGNASASA [FS-2791]", "class-assignment": "Satisfied"}
{"sequence": "CAEPRRSRRKAGNASASA [FS-23]", "class-assignment": "Satisfied"}
{"sequence": "CAMKECSQHLAGNASASA [HC1694]", "class-assignment": "Not satisfied"}
{"sequence": "CAPISYLKGSAGNASASA [HC739]", "class-assignment": "Not satisfied"}
{"sequence": "CAEPLRKKKKAGNASASA [FS-1320]", "class-assignment": "Not satisfied"}
{"sequence": "CADGEVVTSTAGNASASA [HC2296]", "class-assignment": "Not satisfied"}
{"sequence": "CALSSRHSRSAGNASASA [FS-688]", "class-assignment": "Satisfied"}
{"sequence": "CAWTVYHGAGAGNASASA [HC700]", "class-assignment": "Satisfied"}
{"sequence": "CARKYRSNKGAGNASASA [FS-2703]", "class-assignment": "Not satisfied"}
{"sequence": "CAWVPCHRPSAGNASASA [HC2308]", "class-assignment": "Satisfied"}
{"sequence": "CAYCWHYPPKAGNASASA [HC403]", "class-assignment": "Not satisfied"}
{"sequence": "CAAEEYVEIRAGNASASA [HC1204]", "class-assignment": "Satisfied"}
{"sequence": "CAMDYRGRRKAGNASASA [FS-1544]", "class-assignment": "Not satisfied"}
{"sequence": "CAVPASAYQVAGNASASA [HC254]", "class-assignment": "Not satisfied"}
{"sequence": "CAPEGRRKRTAGNASASA [FS-1042]", "class-assignment": "Satisfied"}
{"sequence": "CAGSPRPRRRAGNASASA [FS-436]", "class-assignment": "Satisfied"}
{"sequence": "CAHAVGIFRAAGNASASA [HC748]", "class-assignment": "Not satisfied"}
{"sequence": "CARKAREVCDAGNASASA [FS-1900]", "class-assignment": "Satisfied"}
